# measured.on: Recombinant human his-tagged IGF R extracellular domain protein (human) (UniProt P08069)
# procedure.text: SPR, Ab captured via anti-huIgG Fc, dissociation at pH 6
Listed binders paired with reported koff
A number alone suffices; assume s⁻¹.

VRDN-02015 (antibody, V domains shown) VH: QVQLQESGPGLVKPSETLSLTCTVSGYSITGGYLWNWIRQPPGKGLEWIGYISHDGTNNYKPSLKDRVTISRDTSKNQFSLKLSSVTAADTAVYYCARYGRVFFDYWGQGTLVTVSS VL: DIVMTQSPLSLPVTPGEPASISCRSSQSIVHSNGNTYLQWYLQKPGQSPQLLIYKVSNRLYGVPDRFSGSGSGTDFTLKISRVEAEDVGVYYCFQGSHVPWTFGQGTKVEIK; 8.79e-05

Next binder, koff to be filled in.
In: Can you look up the measured koff of VRDN-02049 (antibody, V domains shown) VH: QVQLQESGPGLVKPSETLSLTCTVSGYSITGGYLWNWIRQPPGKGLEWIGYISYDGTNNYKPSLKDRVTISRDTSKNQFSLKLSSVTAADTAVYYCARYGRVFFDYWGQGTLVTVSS VL: DIVMTQSPLSLPVTPGEPASISCRSSQSIVHSNGNTYLQWYLQKPGQSPQLLIYKVSNRHYGVPDRFSGSGSGTDFTLKISRVEAEDVGVYYCFQGSHVPWTFGQGTKVEIK for me?
Out: 9.15e-05
